- System: UACC-62
- assay.text: NCI tumour cell line growth inhibition, 48 h
Calls of active or inactive are those of the source. Cut-off read from the data, not from the text of the source: active = GI50 up to about 1.1 µM and inactive = higher.
For each entry below, report its GI50 value.

Field: GI50. Fill in for each record below.
1. CN(CCO)/N=N/c1[nH]cnc1C(N)=O
2. CC(C)c1ccc2c(c1)[C@@]1(C)CC[C@H](C)C(C)(C)C1CC2 (stereo partly drawn)
3. COc1cc(OC)c(Oc2cccc(OC)c2OC)c(OC)c1

**Result**
["83.8 µM (inactive)", "16.2 µM (inactive)", "> 100 µM (inactive)"]

====

- Test system: HOP-62
- assay.text: NCI tumour cell line growth inhibition, 48 h
The source made the active and inactive calls. Cut-off read from the data, not from the text of the source: active = GI50 up to about 1.1 µM and inactive = higher.
metric: GI50

[
  {
    "molecule": "CCOc1ccc(/N=C/C=C(\\Cl)c2ccc3ccccc3c2)cc1",
    "subject.of.test": "HOP-62",
    "GI50": "15.3 µM (inactive)"
  },
  {
    "molecule": "C[N+]12C=CC=C1C(N1CCCC1)c1scc(-c3ccc(F)cc3)c12 (stereo not given)",
    "subject.of.test": "HOP-62",
    "GI50": "63.7 µM (inactive)"
  },
  {
    "molecule": "Cc1cc(O)c2c(=O)c3c(O)cc(O)c4c5c(O)cc(O)c6c(=O)c7c(O)cc(C)c8c1c2c(c34)c(c78)c65",
    "subject.of.test": "HOP-62",
    "GI50": "28.3 µM (inactive)"
  }
]

Field: GI50. Fill in for each record below.
1. Oc1cc(-c2ccc(F)cc2)nc2ncc(Cl)cc12
2. O=S(=O)(c1cnccc1N1CCN(CCO)CC1)N1CCCC1

**Result**
32.2 µM (inactive)
> 100 µM (inactive)

====

- System: NCI-H522
- assay.text: NCI tumour cell line growth inhibition, 48 h
The source made the active and inactive calls. Rule as the data show it: active = GI50 up to about 1.1 µM and inactive = higher.
Your response should consist of one outcome taken from active, inactive

Example cases with answers are listed next.
[
  {
    "compound": "Cc1ccc(OCC2=NN3C(=O)/C(=C\\c4ccc([N+](=O)[O-])o4)SC3N2)cc1 (configuration not stated)",
    "group": "inactive"
  },
  {
    "compound": "CC(Oc1ccc2c(-c3ccc(Cl)cc3)cc(=O)oc2c1)C(=O)O (configuration not stated)",
    "group": "inactive"
  },
  {
    "compound": "c1csc(-c2cc(-c3ccsc3)c(-c3cccs3)s2)c1",
    "group": "inactive"
  },
  {
    "compound": "CN(C)CC1COC2Cc3ccccc3C1O2 (configuration not stated)",
    "group": "inactive"
  }
]

**Query** // return assay outcome for CC(C)(C)c1ccc(-c2nnc(-c3cc(C#N)cc(-c4nnc(-c5ccc(C(C)(C)C)cc5)o4)c3)o2)cc1
**Result** inactive

**Query** // return assay outcome for C#Cc1cccc(N2C(=O)CCC2=O)c1
**Result** inactive

**Query** // return assay outcome for COc1ccc2nc3c([N+](=O)[O-])ccc(NCCCN(C)C)c3c(N)c2c1
**Result** active

**Query** // return assay outcome for Clc1ccc(-c2cc(-c3cc4cc(Br)ccc4nc3Cl)on2)cc1
**Result** inactive

**Query** // return assay outcome for COc1ccc2c(c1)C(=O)N1CCOC1C2C(=O)O (configuration not stated)
**Result** inactive

**Query** // return assay outcome for CC1=C(C#N)C2C(=C(N)Oc3ccccc32)C(N)=N1 (configuration not stated)
**Result** inactive

**Query** // return assay outcome for CC(C)=CC[C@]12CCN[C@H]1N(S(=O)(=O)c1ccccc1)c1ccccc12
**Result** inactive

**Query** // return assay outcome for Cc1cc2cc3c(O)nc(O)nc3nc2cc1C
**Result** inactive
